- System: tobacco leaves
- PROTOCOL SUMMARY: Effect of peptide infiltration on tobacco leaves (lesion size)
- Assay type: in vivo
- EXPERIMENTAL CONDITIONS: D-amino acid lipopeptides; 150 µM, 100 µL infiltrated into tobacco leaves, lesion diameter, 48 h, at least three leaves; ± confidence interval
Where a SMILES comes first, the peptide text is derived from it. [ ]: non-standard residue; d: D form. The star is where a group is joined. Lauroyl = CCCCCCCCCCCC(=O)*; Hexanoyl = CCCCCC(=O)*
MEASURED ENDPOINT: Size of the lesion (mm) 150 µM
Give your result in mm as a bare value.

>  <COMPOUND>
CCCC(=O)NCCCC[C@H](NC(=O)[C@H](CC(C)C)NC(=O)[C@@H](NC(=O)[C@H](CCCCN)NC(=O)[C@H](CCCCN)NC(=O)[C@@H](Cc1ccccc1)NC(=O)[C@H](CC(C)C)NC(=O)[C@H](CCCCN)NC(=O)[C@H](CCCCN)NC(C)=O)[C@@H](C)CC)C(=O)N[C@@H](Cc1ccc(O)cc1)C(=O)N[C@@H](CC(C)C)C(N)=O

>  <Size of the lesion (mm) 150 µM>
8

$$$$

GET /value?item= CCCCCC(=O)NCCCC[C@H](NC(=O)[C@H](CCCCN)NC(=O)[C@H](CCCCN)NC(=O)[C@@H](Cc1ccccc1)NC(=O)[C@H](CC(C)C)NC(=O)[C@H](CCCCN)NC(=O)[C@H](CCCCN)NC(C)=O)C(=O)N[C@@H](CC(C)C)C(=O)N[C@@H](CCCCN)C(=O)N[C@@H](Cc1ccc(O)cc1)C(=O)N[C@@H](CC(C)C)C(N)=O [BP494, Ac-KKLfKKK(COC5H11)LKYL-NH2] (Ac-KKL[dF]KKK(Hexanoyl)LKYL-NH2) &field=Size of the lesion (mm) 150 µM returns 6

get_value(item= CCCCCCCCCCCC(=O)NCCCC[C@H](NC(=O)[C@H](CCCCN)NC(=O)[C@H](CCCCN)NC(=O)[C@@H](Cc1ccccc1)NC(=O)[C@H](CC(C)C)NC(=O)[C@H](CCCCN)NC(=O)[C@H](CCCCN)NC(C)=O)C(=O)N[C@@H](CC(C)C)C(=O)N[C@@H](CCCCN)C(=O)N[C@@H](Cc1ccc(O)cc1)C(=O)N[C@@H](CC(C)C)C(N)=O [BP489, Ac-KKLfKKK(COC11H23)LKYL-NH2] (Ac-KKL[dF]KKK(Lauroyl)LKYL-NH2) , readout=Size of the lesion (mm) 150 µM) returns 6

Size of the lesion (mm) 150 µM for CCCCCC(=O)N[C@@H](CCCCN)C(=O)N[C@@H](CCCCN)C(=O)N[C@@H](CC(C)C)C(=O)N[C@H](Cc1ccccc1)C(=O)N[C@@H](CCCCN)C(=O)N[C@@H](CCCCN)C(=O)N[C@H](C(=O)N[C@@H](CC(C)C)C(=O)N[C@@H](CCCCN)C(=O)N[C@@H](Cc1ccc(O)cc1)C(=O)N[C@@H](CC(C)C)C(N)=O)[C@@H](C)CC [BP472, C5H11CO-KKLfKKILKYL-NH2] is 4
